Hello, the source for this data is paper PMC5706701, in case you need it.

# assayed_target: Human IP6K1 (Homo sapiens)
# Construct: GST (N, cleaved yes); made in house; host or cells: C43 E. coli, pGEX-6P-2
# Sequence (Q92551 whole entry): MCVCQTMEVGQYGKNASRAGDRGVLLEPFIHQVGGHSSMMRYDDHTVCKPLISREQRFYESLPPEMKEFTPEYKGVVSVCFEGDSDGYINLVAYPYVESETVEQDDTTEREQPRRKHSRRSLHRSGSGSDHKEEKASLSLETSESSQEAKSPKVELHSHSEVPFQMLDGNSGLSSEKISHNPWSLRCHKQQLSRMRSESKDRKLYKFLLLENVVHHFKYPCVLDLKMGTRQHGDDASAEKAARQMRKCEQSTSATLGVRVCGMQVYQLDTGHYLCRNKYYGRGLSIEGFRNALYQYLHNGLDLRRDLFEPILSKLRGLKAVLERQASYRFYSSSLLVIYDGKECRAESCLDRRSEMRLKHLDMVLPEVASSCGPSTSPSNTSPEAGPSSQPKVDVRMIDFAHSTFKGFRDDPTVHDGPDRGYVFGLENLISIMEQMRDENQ
# assay_details: IP6K1 high-throughput screen of the Sigma LOPAC (ADP-Glo Max, single point);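 note: final compound concentration 10µM in 5% DMSO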
# Format: biochemical
# measurement_conditions: LOPAC single-point screen; Z-score from raw signal with plate average and StDev
recorded_endpoint: Z-score
Please state the value as a number alone, without comment.

Some entries whose results are on file:
>  <compound>
CCCCCCCCCCCCCCCCCC(=O)OC(CC(=O)O)C[N+](C)(C)C.[Cl-] (racemic) [DL-Stearoylcarnitine chloride]

>  <assayed_target>
Human IP6K1 (Homo sapiens)

>  <readout_number>
-0.1474

$$$$
>  <compound>
COC(=O)C(C)(N)Cc1ccc(O)cc1.Cl (racemic)

>  <assayed_target>
Human IP6K1 (Homo sapiens)

>  <readout_number>
-0.2515

$$$$
>  <compound>
CNCCNS(=O)(=O)c1cccc2cnccc12.Cl.Cl [H-8 dihydrochloride]

>  <assayed_target>
Human IP6K1 (Homo sapiens)

>  <readout_number>
-0.1627

$$$$
>  <compound>
CCn1cc(C(=O)O)c(=O)c2ccc(Cc3ccccc3)nc21 [Amfonelic acid]

>  <assayed_target>
Human IP6K1 (Homo sapiens)

>  <readout_number>
-0.107

$$$$
>  <compound>
NC(=O)c1cc(N2CC2)c([N+](=O)[O-])cc1[N+](=O)[O-] [CB 1954]

>  <assayed_target>
Human IP6K1 (Homo sapiens)

>  <readout_number>
-0.4639

$$$$

Identify measured Z-score associated with O=C(O)CP(=O)(O)O [Phosphonoacetic acid]
-0.2663

Quick one: give measured Z-score for CSC(N)=NCCC[C@H](N)C(=O)O [S-Methyl-L-thiocitrulline acetate]
-0.2284

Give the reported Z-score for this compound. O=C(O)/C=C\C(=O)O.O=[N+]([O-])c1ccc2nc(N3CCNCC3)ccc2c1 [Quipazine, 6-nitro-, maleate]
-0.2764

----------
# assayed_target: human IP6K2 (Homo sapiens)
# Construct: GST (N, cleaved yes); made in house; host or cells: C43 E. coli, pGEX-6P-2
# Sequence (Q9UHH9 1-426): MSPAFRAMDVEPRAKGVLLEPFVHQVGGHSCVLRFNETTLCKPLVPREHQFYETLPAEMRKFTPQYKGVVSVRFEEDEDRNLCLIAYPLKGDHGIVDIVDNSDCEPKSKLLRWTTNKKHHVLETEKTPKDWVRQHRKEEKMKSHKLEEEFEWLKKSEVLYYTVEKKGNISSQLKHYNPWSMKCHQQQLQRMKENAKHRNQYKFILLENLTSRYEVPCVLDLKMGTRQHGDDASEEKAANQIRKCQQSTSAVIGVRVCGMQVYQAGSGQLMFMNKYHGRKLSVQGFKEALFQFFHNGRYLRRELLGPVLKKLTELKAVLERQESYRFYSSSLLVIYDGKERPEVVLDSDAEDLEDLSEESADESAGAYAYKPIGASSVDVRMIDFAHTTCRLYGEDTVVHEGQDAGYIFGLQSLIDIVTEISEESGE
# assay_details: IP6K2 inhibition dose-response assay (ADP-Glo Max)
# Format: biochemical
# measurement_conditions: 1mM ATP, 100μM IP6, 7.5nM IP6K2, 30 minutes, 37°C; read-out: IC50 IP6K2
# Description: Human IP6K1 (NCBI accession# Q92551), human IP6K2 (NCBI accession# Q9UHH9), and human IP6K3 (NCBI accession# Q96PC2) were purified from C43 E. coli transformed with pGEX-6P-2 expression vector containing GST tagged IP6K1, IP6K2, or IP6K3. The bacteria were grown overnight in a starter culture containing LB (Lennox) and 100μg/mL ampicillin (Sigma). […]
recorded_endpoint: IC50 (µM)
Give the value, in units of µM, as a plain number.

Return reported IC50. Input molecule: `O=c1c(O)c(-c2cc(O)c(O)c(O)c2)oc2cc(O)cc(O)c12`
23.4
